Kindly state DC50 for each of the entries shown.
- Test system: androgen receptor (AR) splicing variant AR-v7 (Homo sapiens)
- Construct: The degradation activity of compounds on AR-v7 in 22RV1 cells; host or cells: 22RV1 cells
- Sequence (P10275 1-644 isoform P10275-3): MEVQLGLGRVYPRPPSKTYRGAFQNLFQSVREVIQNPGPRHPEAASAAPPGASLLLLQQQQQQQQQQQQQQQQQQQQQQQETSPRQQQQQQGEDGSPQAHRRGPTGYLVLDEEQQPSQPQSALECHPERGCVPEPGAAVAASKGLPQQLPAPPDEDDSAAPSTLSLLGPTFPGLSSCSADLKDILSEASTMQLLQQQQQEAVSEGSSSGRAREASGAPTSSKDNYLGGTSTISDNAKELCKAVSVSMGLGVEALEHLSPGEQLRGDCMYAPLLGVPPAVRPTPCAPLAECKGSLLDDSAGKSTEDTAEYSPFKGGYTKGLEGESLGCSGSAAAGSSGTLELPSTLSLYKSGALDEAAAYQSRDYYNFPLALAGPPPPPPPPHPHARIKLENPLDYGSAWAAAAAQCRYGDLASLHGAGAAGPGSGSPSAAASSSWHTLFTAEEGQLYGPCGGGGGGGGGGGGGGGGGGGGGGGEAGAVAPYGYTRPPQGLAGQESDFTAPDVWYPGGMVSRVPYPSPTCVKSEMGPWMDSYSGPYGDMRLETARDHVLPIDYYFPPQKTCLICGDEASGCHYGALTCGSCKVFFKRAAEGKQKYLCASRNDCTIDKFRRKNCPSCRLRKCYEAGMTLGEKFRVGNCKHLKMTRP
- Experimental protocol: Degradation activity on androgen receptor splicing variant AR-v7 in 22RV1 cells (ELISA)
- Format: cell-based
- Assay setup: AR-v7 degradation in 22RV1 cells, 48 h, class symbols

CC(C)(c1ccc(Oc2ccc(-n3nccn3)nc2)cc1)c1ccc(O[C@H]2C[C@H](Nc3ccc4c(c3)C(=O)N(C3CCC(=O)NC3=O)C4=O)C2)cc1 (stereo partly shown) [Example 206]; < 10 nM
COc1nccc(COc2ccc(C(C)(C)c3ccc(OC4CC(Nc5ccc6c(c5)C(=O)N(C5CCC(=O)NC5=O)C6=O)C4)cc3)cc2)n1 (stereo not shown) [Example 447]; < 10 nM

Hello, I would appreciate it if you could give DC50 for each entry below.
1. CC(O)c1nccc(COc2ccc(C(C)(C)c3ccc(O[C@H]4C[C@@H](Nc5ccc6c(c5)C(=O)N(C5CCC(=O)NC5=O)C6=O)C4)cc3)cc2)n1 (stereo partly shown) [Example 492]
2. Cc1nc(-c2ccnc(Oc3ccc(C(C)(C)c4ccc(O[C@H]5C[C@@H](Nc6ccc7c(c6)C(=O)N(C6CCC(=O)NC6=O)C7=O)C5)cc4)cc3)n2)no1 (stereo partly shown) [Example 173]

Reply |
< 10 nM
11 to 100 nM
